The entries below are paired with their reported phosphorylation enrichment.
Target: Hck (UniProt P08631)
Sequence (P08631 whole entry, looked up): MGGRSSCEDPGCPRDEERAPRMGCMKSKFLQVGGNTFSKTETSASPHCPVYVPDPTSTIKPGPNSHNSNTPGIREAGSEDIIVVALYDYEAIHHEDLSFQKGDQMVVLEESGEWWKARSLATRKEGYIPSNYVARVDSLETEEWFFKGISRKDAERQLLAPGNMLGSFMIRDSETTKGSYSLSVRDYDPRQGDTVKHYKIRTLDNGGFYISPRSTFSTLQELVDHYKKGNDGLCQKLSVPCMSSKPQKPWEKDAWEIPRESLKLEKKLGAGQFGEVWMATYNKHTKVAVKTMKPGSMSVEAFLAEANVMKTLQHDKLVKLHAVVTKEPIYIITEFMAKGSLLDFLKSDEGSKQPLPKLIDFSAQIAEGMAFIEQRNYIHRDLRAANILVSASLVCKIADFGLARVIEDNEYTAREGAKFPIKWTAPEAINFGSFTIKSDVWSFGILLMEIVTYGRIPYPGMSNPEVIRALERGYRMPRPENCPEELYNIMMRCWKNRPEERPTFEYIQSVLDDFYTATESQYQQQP
Test: phosphorylation enrichment, bacterial display (enrichment ratio); higher = better substrate or ligand; peptides without Tyr show the background
MEASUREMENT TYPE: phosphorylation enrichment

                     residue_string    val
 0           KPYRVYCDMNT [FGB_Y269]  0.691
 1        STDDGYIDLQF [TMEM230_Y29]  0.521
 2      LWKWKYEELKE [CCDC102B_Y299]  0.513
 3   CYCSWYRGWAP [TIMP3_Y195_G190C]   1.01
 4       VRVQLYDPDYM [CYP4A22_Y100]  0.807
 5        AEPDIYQEKLS [USP54_Y1233]  0.702
 6   TTSQPYRRLCS [USH2A_Y534_C536R]  0.286
 7  SLAARYYNWVC [FLT4_Y1230_S1235C]  0.728
 8         NACGLYYKLHN [GATA2_Y376]   1.21
 9        QSAGQYSSQGL [TNNI3K_Y788]  0.855
10  FEAMEYLESKQ [BTK_Y511_C506Y_YF]  0.567
11         HLITAYRAHGF [PDHA1_Y118]  0.536
12   EQLRAYLEGLC [HLA-C_Y183_T187L]   0.73

----------
Biological target: Grb2 SH2 (UniProt P62993)
Sequence (P62993 whole entry, looked up): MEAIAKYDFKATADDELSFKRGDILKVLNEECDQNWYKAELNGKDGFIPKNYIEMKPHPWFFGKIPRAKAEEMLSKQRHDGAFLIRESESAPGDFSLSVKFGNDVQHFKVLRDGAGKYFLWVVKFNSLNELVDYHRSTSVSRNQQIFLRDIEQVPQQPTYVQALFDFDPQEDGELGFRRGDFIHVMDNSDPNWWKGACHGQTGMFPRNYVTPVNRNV
Assay: SH2 binding enrichment of the phosphorylated peptide, bacterial display (enrichment ratio); higher = better substrate or ligand; peptides without Tyr show the background
MEASUREMENT TYPE: SH2 binding enrichment

In [3]: df
Out[3]:
                      residue_string        measurement_type    val
 0          YSMGCYEISLG [HMGCL_Y198]  SH2 binding enrichment  0.551
 1     YPKARYRWLVL [APTX_Y214_H215R]  SH2 binding enrichment   1.08
 2  PDSVDYPKKGF [CTSK_Y121_R122P_YF]  SH2 binding enrichment  0.872
 3  RDMMDYMPQGV [CYP21A2_Y259_L261P]  SH2 binding enrichment  0.909
 4      LFLACYFIGGG [UBD_Y161_C162F]  SH2 binding enrichment  0.861
 5           HSLHDYKEALM [ADA2_Y337]  SH2 binding enrichment  0.702
 6     THPFPYLSLEI [MLH1_Y293_L292P]  SH2 binding enrichment   1.04
 7            SRWKLYPRMLR [HAO1_Y50]  SH2 binding enrichment   0.79
 8    LECEWYKNGVK [TTN_Y2112_P2107L]  SH2 binding enrichment  0.613
 9           NPIGLYSAETL [LDB3_Y202]  SH2 binding enrichment  0.813
10         PSPTRYSLSPS [RANBP2_Y785]  SH2 binding enrichment  0.759
11    WRPFGYPRCRR [BCS1L_Y181_R184C]  SH2 binding enrichment  0.714
12         YSNVLYRPRGA [TMIGD2_Y197]  SH2 binding enrichment  0.907
13          DAAEDYAEGVR [DHODH_Y194]  SH2 binding enrichment  0.937
14        SSPMKYQQNVS [EGFEM1P_Y160]  SH2 binding enrichment  0.878
15     HLSPEYKQNEI [GJB1_Y243_R238H]  SH2 binding enrichment  0.905
16          PRAEWYRDDVL [MYOM2_Y317]  SH2 binding enrichment  0.802
17           KPAFSYTSSST [SIM1_Y356]  SH2 binding enrichment  0.944
18   IGEVVYQWAVM [GRIN2A_Y502_R504W]  SH2 binding enrichment  0.845
19       ESDFTYSSSFE [SRPK2_Y427_YF]  SH2 binding enrichment  0.735
